Data origin: ChEMBL document CHEMBL4190174

- Test system: U373 MG
- assay-comment: Growth inhibition of empty vector transfected human U373 cells after 7 days by MTT assay
- Assay type: functional, U-373MG ATCC
- recorded-conditions: 168 h
Values of GI50 strictly less than 90 µM map to y, and values of at least 90 µM map to n.

Take a look at these entries with their results.
CC(=O)OCn1nnc2c(C(N)=O)ncn2c1=O; y
CNC(=O)Cn1nnc2c(C(N)=O)ncn2c1=O; n
NC(=O)c1ncn2c(=O)n(CC3CC3)nnc12; n

Would you kindly look at the next entry?
Input line: Report whether reported GI50 is lower than 90 µM (strictly) for CN(C)C(=O)Cn1nnc2c(C(N)=O)ncn2c1=O
Output line: y

----------
The reader will find reported GI50 values listed item by item below.
- Tested on: SNB-19
- assay-comment: Growth inhibition of MGMT-transfected human SNB19 cells after 7 days by MTT assay
- Format: functional
- recorded-conditions: SNB-19, 168 h
State just the number; it will be interpreted in µM.

Field: example entries. Status: answers known.
NC(=O)c1ncn2c(=O)n(CC3CC3)nnc12; 223
CCOC(=O)C/N=N/Nc1[nH]cnc1C(N)=O; 37.4
NC(=O)c1ncn2c(=O)n(CO)nnc12; 42.1
CC(=O)OCn1nnc2c(C(N)=O)ncn2c1=O; 40.4
NC(=O)c1ncn2c(=O)n(COCc3ccccc3)nnc12; 48.5
NC(=O)CCn1nnc2c(C(N)=O)ncn2c1=O; 398
NC(=O)c1ncn2c(=O)n(CCO)nnc12; 417
C[Si](C)(C)C#CCn1nnc2c(C(N)=O)ncn2c1=O; 39.5
NC(=O)c1ncn2c(=O)n(CC(=O)O)nnc12; 296
NC(=O)c1ncn2c(=O)n(CCCl)nnc12 [MITOZOLOMIDE]; 68.4

Input line: For the molecule C[S+]([O-])Cn1nnc2c(C(N)=O)ncn2c1=O (stereo unspecified) , give its measured GI50 value.
Output line: 20.1

Input line: For the molecule NC(=O)c1nc[nH]c1N/N=N/CC(F)F , give its measured GI50 value.
Output line: 70.3

Input line: For the molecule C#CCn1nnc2c(C(N)=O)ncn2c1=O , give its measured GI50 value.
Output line: 37.8

Input line: For the molecule CSCn1nnc2c(C(N)=O)ncn2c1=O , give its measured GI50 value.
Output line: 151

----------
- Tested on: SNB-19
- assay-comment: Growth inhibition of MGMT-transfected human SNB19 cells after 7 days by MTT assay
- Type: functional
- recorded-conditions: SNB-19, 168 h
observation-type: log10 of GI50 (log10 of the value in µM)
A difference of one corresponds to tenfold GI50; all values are log10 with GI50 in µM.

Field: example entries. Status: answers known.
N#CC/N=N/Nc1[nH]cnc1C(N)=O; 2.43
NC(=O)Cn1nnc2c(C(N)=O)ncn2c1=O; 1.98
CN(C)C(=O)Cn1nnc2c(C(N)=O)ncn2c1=O; 1.87

Input line: For the compound CS(=O)(=O)Cn1nnc2c(C(N)=O)ncn2c1=O , give its measured log10 of GI50 value.
Output line: 1.26

Input line: For the compound COCn1nnc2c(C(N)=O)ncn2c1=O , give its measured log10 of GI50 value.
Output line: 1.58

Input line: For the compound CC(C)(C)C(=O)OCn1nnc2c(C(N)=O)ncn2c1=O , give its measured log10 of GI50 value.
Output line: 1.45

----------
- Tested on: U373 MG
- assay-comment: Growth inhibition of empty vector transfected human U373 cells after 7 days by MTT assay
- Assay type: functional, U-373MG ATCC
- recorded-conditions: 168 h
observation-type: log10 of GI50 (log10 of the value in µM)
A difference of one corresponds to tenfold GI50; all values are log10 with GI50 in µM.

Field: example entries. Status: answers known.
CCOC(=O)CCn1nnc2c(C(N)=O)ncn2c1=O; 2.11
NC(=O)c1ncn2c(=O)n(CCl)nnc12; 1.47
NC(=O)c1ncn2c(=O)n(C3CC3)nnc12; 2.49
CC(C)(C)C(=O)OCn1nnc2c(C(N)=O)ncn2c1=O; 1.12

Input line: For the compound CSCn1nnc2c(C(N)=O)ncn2c1=O , give its measured log10 of GI50 value.
Output line: 1.77

Input line: For the compound C[S+]([O-])Cn1nnc2c(C(N)=O)ncn2c1=O (configuration not stated) , give its measured log10 of GI50 value.
Output line: 1.14

Input line: For the compound Cn1nnc2c(C(N)=O)ncn2c1=O [TEMOZOLOMIDE] , give its measured log10 of GI50 value.
Output line: 1.86

Input line: For the compound CS(=O)(=O)Cn1nnc2c(C(N)=O)ncn2c1=O , give its measured log10 of GI50 value.
Output line: 1.31

Input line: For the compound NC(=O)c1ncn2c(=O)n(COCc3ccccc3)nnc12 , give its measured log10 of GI50 value.
Output line: 1.22

----------
- Test system: U373 MG
- assay-comment: Growth inhibition of empty vector transfected human U373 cells after 7 days by MTT assay
- Format: functional, U-373MG ATCC
- recorded-conditions: 168 h
observation-type: GI50 (µM)
State just the number; it will be interpreted in µM.

C[Si](C)(C)C#CCn1nnc2c(C(N)=O)ncn2c1=O; 30.3
CCOC(=O)Cn1nnc2c(C(N)=O)ncn2c1=O; 63.2
NC(=O)c1nc[nH]c1N/N=N/CC(F)F; 205
NC(=O)c1ncn2c(=O)n(CC(=O)N3CCOCC3)nnc12; 243

API: the following record is the query input.
Input line: For the compound NC(=O)c1nc[nH]c1N/N=N/CCO , give its measured GI50 value.
Output line: 383

----------
- Test system: SNB-19
- assay-comment: Growth inhibition of MGMT-transfected human SNB19 cells after 7 days by MTT assay
- Assay type: functional
- recorded-conditions: SNB-19, 168 h
observation-type: GI50 (µM)
State just the number; it will be interpreted in µM.

Field: example entries. Status: answers known.
NC(=O)c1ncn2c(=O)n(CC(=O)N3CCOCC3)nnc12; 102
CNC(=O)Cn1nnc2c(C(N)=O)ncn2c1=O; 246
COC(=O)C/N=N/Nc1[nH]cnc1C(N)=O; 49.7
NC(=O)c1ncn2c(=O)n(CCl)nnc12; 31
CC#CCn1nnc2c(C(N)=O)ncn2c1=O; 37.6

Input line: For the molecule COC(=O)Cn1nnc2c(C(N)=O)ncn2c1=O , give its measured GI50 value.
Output line: 49

----------
- Tested on: SNB-19
- assay-comment: Growth inhibition of MGMT-transfected human SNB19 cells after 7 days by MTT assay
- Format: functional
- recorded-conditions: SNB-19, 168 h
The reader will find reported GI50 values listed item by item below.
State just the number; it will be interpreted in µM.

Field: example entries. Status: answers known.
Cn1nnc2c(C(N)=O)ncn2c1=O [TEMOZOLOMIDE]; 526
NC(=O)c1nc[nH]c1N/N=N/CC(F)(F)F; 131
C#CC/N=N/Nc1[nH]cnc1C(N)=O; 33.9
CCOC(=O)CCn1nnc2c(C(N)=O)ncn2c1=O; 255
CCOC(=O)Cn1nnc2c(C(N)=O)ncn2c1=O; 61.1

Input line: For the compound C=CCn1nnc2c(C(N)=O)ncn2c1=O , give its measured GI50 value.
Output line: 239

----------
- Test system: U373 MG
- assay-comment: Growth inhibition of empty vector transfected human U373 cells after 7 days by MTT assay
- Format: functional, U-373MG ATCC
- recorded-conditions: 168 h
Values of GI50 strictly less than 100 µM map to YES, and values of at least 100 µM map to NO.

NC(=O)c1ncn2c(=O)n(CCC(=O)O)nnc12; NO

Input line: Report whether reported GI50 is lower than 100 µM (strictly) for CC#CCn1nnc2c(C(N)=O)ncn2c1=O
Output line: YES

Input line: Report whether reported GI50 is lower than 100 µM (strictly) for COCC/N=N/Nc1[nH]cnc1C(N)=O
Output line: NO

Input line: Report whether reported GI50 is lower than 100 µM (strictly) for NC(=O)c1nc[nH]c1N/N=N/CC(F)(F)F
Output line: NO

Input line: Report whether reported GI50 is lower than 100 µM (strictly) for C#CCn1nnc2c(C(N)=O)ncn2c1=O
Output line: YES

Input line: Report whether reported GI50 is lower than 100 µM (strictly) for COCn1nnc2c(C(N)=O)ncn2c1=O
Output line: YES

----------
- Test system: SNB-19
- assay-comment: Growth inhibition of MGMT-transfected human SNB19 cells after 7 days by MTT assay
- Format: functional
- recorded-conditions: SNB-19, 168 h
observation-type: GI50

Input line: For the molecule NC(=O)c1nc[nH]c1N/N=N/C1CC1 , give its measured GI50 value.
Output line: > 500 µM

Input line: For the molecule NC(=O)c1ncn2c(=O)n(C3CC3)nnc12 , give its measured GI50 value.
Output line: > 500 µM

Input line: For the molecule CCOC(=O)C=[N+]=[N-] , give its measured GI50 value.
Output line: > 800 µM

Input line: For the molecule NC(=O)c1nc[nH]c1N/N=N/CC1CC1 , give its measured GI50 value.
Output line: > 500 µM

Input line: For the molecule NC(=O)c1ncn2c(=O)n(CCC(=O)O)nnc12 , give its measured GI50 value.
Output line: > 250 µM

Input line: For the molecule NC(=O)c1nc[nH]c1N/N=N/CCO , give its measured GI50 value.
Output line: > 500 µM
